All values here come from patent US4262013A.

System: cholesterol biosynthesis in L-cells of mice (929)
Test: Assay Method B: inhibition of 14C-cholesterol biosynthesis from 14C-acetic acid in L-cells of mice (929) (method of Kandutsch et al)
Format: cell-based
Conditions: Mus musculus, mole concentration for 50% inhibition of cholesterol biosynthesis, read-out: ID50 (M) Assay Method B
property label: IC50 (M)
Answer in M, number only, no unit symbol.

# count of solved cases: 3
compound="CC1(O)CC(=O)OC(CCCc2ccc(OCc3ccccc3)cc2)C1Br (stereo not shown)" property_label=IC50 numeric_readout=1.2e-05
compound="CC1(O)CC(=O)OC(C=Cc2cccc(OCc3ccccc3)c2)C1 (stereo not shown)" property_label=IC50 numeric_readout=0.00012
compound="Cc1cc(OCc2ccccc2)cc(C)c1CCC1OC(=O)CC(C)(O)C1Br (stereo not shown)" property_label=IC50 numeric_readout=1e-05

Now let's try a different one.
I looked up Cc1cc(OC(=O)c2ccccc2)cc(C)c1CCC1CC(C)(O)CC(=O)O1 (stereo not shown) and its IC50 for cholesterol biosynthesis in L-cells of mice (929) was 6.5e-06
